What IC80 (µg/ml) with constrains was measured for each of the following?
TARGET OR SYSTEM: HIV Env, isolate CNE53 (HIV)
PROCEDURE TEXT: cell-based or functional assay
Remember to put the unit after the number in your answer.

Value of IC80 (µg/ml) with constrains reported for the binder ePGDM9 (antibody, V domains shown) VH: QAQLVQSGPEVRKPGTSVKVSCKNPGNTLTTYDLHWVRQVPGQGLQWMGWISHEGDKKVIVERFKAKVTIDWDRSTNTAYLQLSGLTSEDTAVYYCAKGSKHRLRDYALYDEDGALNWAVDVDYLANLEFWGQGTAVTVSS VL: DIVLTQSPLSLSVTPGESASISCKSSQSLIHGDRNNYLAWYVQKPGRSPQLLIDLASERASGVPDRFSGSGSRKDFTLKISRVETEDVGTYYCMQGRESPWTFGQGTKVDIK is 0.029 µg/mL

For record PGDM1400 (antibody, V domains shown) VH: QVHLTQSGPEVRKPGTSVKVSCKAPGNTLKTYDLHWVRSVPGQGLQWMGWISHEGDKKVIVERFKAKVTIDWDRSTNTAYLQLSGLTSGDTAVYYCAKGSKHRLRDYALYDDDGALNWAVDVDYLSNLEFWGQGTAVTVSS VL: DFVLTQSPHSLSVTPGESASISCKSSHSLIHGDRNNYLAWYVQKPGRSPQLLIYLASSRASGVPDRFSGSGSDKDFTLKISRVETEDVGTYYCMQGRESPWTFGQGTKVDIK the listed IC80 (µg/ml) with constrains is 0.105 µg/mL

Looking up ePGDM5 (antibody, V domains shown) VH: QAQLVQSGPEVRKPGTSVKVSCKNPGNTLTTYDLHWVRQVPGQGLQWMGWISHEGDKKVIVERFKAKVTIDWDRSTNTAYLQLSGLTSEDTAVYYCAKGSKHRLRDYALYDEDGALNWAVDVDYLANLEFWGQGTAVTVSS VL: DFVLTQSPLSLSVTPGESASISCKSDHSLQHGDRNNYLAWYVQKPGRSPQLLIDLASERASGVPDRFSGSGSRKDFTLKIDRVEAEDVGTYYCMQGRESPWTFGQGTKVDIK , I see its IC80 (µg/ml) with constrains listed as 0.081 µg/mL

Documented IC80 (µg/ml) with constrains of ePGDM13 (antibody, V domains shown) VH: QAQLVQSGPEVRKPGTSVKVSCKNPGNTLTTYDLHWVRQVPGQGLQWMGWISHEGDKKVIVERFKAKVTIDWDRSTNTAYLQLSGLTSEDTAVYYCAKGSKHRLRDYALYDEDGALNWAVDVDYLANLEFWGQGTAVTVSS VL: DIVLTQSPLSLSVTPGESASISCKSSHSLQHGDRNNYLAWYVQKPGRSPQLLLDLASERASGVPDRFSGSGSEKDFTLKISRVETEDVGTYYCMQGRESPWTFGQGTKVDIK : 0.059 µg/mL
